- Test system: Salmonella typhimurium
- method: Antibiofilm activity in Salmonella Typhimurium ATCC 14028 assessed as inhibition of biofilm formation at 25 degC after 24 hrs
- Type: functional, organism-based, Salmonella enterica subsp. enterica serovar Typhimurium
- reported_conditions: Salmonella enterica, ATCC 14028, 24 h
pIC50: −log10 of the molar value.
// classify(record): look up pIC50 in ranges low = under 4, mid = from 4 up to 5, high = 5 and over

Example results:
>  <sample_smiles>
Nc1nc(-c2ccc(-c3ccccc3)cc2)c[nH]1

>  <class_label>
mid

$$$$
>  <sample_smiles>
CCCCCn1c(-c2ccccc2)cnc1N

>  <class_label>
mid

$$$$
>  <sample_smiles>
CCCCCCCCn1c(-c2cccc3ccccc23)cnc1N

>  <class_label>
high

$$$$

Incoming: Category lookup for the compound CCCCn1c(-c2ccc(Cl)cc2)cnc1N
Outgoing: mid

Incoming: Please classify: CCCCCCCCCCCCCCn1c(-c2ccc(-c3ccccc3)cc2)cnc1N
Outgoing: low

Incoming: Textbook exercise: identify the category of the compound given here, CC(C)n1c(-c2ccccc2)cnc1N , according to its measured value.
Outgoing: low

Incoming: Categorize the following entry: N#Cc1ccc(-c2cnc(N)[nH]2)cc1
Outgoing: low

Incoming: Input CCCCn1c(-c2ccccc2)cnc1N ; output its category
Outgoing: mid

Incoming: Dear colleague, I would appreciate it if you could identify the bin for CCCCCCCC[n+]1c(-c2ccc([N+](=O)[O-])cc2)cn2cccnc21.[O-][Cl+3]([O-])([O-])[O-] and reply at your convenience.
Outgoing: mid

Incoming: Form: Item = CCCCCCCCn1c(-c2ccc(SC)cc2)cnc1N ; Class = ?
Outgoing: high
